Provenance of the data: patent US20240400638A1

Let's look at some binders and their measured EC50 (nM), OVCAR 5 cells (cAMP).
# SYSTEM TESTED: T1, human RXFP1 (human, UniProt Q9HBX9 1-757)
# T1 sequence (looked up): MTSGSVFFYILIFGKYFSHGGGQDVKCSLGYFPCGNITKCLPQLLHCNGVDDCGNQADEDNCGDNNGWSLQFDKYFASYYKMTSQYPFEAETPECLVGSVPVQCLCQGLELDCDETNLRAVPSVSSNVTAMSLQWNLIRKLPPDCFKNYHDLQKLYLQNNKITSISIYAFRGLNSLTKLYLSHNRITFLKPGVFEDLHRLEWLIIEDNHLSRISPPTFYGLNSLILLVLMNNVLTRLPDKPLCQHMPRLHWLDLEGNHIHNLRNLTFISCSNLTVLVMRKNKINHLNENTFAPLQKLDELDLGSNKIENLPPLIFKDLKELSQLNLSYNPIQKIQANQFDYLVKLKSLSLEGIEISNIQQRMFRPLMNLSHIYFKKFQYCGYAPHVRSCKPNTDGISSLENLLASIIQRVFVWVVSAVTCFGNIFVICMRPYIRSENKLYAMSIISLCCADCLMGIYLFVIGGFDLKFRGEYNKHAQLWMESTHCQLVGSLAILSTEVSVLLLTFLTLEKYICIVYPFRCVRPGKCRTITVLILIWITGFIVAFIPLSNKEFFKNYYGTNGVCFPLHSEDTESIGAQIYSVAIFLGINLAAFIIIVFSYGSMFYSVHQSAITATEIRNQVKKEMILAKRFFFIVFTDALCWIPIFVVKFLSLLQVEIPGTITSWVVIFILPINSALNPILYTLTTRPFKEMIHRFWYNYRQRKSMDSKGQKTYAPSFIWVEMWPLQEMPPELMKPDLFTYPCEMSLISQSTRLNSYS
# PROCEDURE DETAILS: cell-based or functional assay
Numbered stars: 1 amine (or outer) side, 2 acyl side, 3 side chain; on linkers, the order of the positions; unused ones are H or OH. Square brackets hold non-standard residues; d marks the D form. Side chains are listed from the residue outwards. * marks the point of attachment. TTDS = 4-[3-[2-[2-(3-aminopropoxy)ethoxy]ethoxy]propylamino]-4-oxo-butanoyl; γGlu = O=C(O)[C@H](CCC(=O)[*:2])N[*:1]; Stearoyl = CCCCCCCCCCCCCCCCCC(=O)*; Palmitoyl = CCCCCCCCCCCCCCCC(=O)*; αMeK = C[C@](N)(CCCCN)C(=O)O; Aib = CC(C)(N)C(=O)O
// units = nM; emit number, no label

Before answering, review these 3 worked examples.
Ac-LEGREKVRAK(Ac)I[Aib][Aib]EGK([TTDS-TTDS-TTDS-TTDS-γGlu-γGlu-γGlu-Stearoyl])STWS[Aib]RKK(Ac)-NH2 [Relaxin peptide analogue of SEQ ID NO: 58]
0.08
Ac-LEGREKVRAK(Ac)I[Aib][Aib]EGK([TTDS-TTDS-γGlu-γGlu-γGlu-Stearoyl])STFS[Aib]RKK(Ac)-NH2 [Relaxin peptide analogue of SEQ ID NO: 60]
0.15
Ac-LEGREKVRAK(Ac)I[Aib][Aib]EGK([TTDS-TTDS-γGlu-γGlu-γGlu-Palmitoyl])STWS[dK]RAK(Ac)-NH2 [Relaxin peptide analogue of SEQ ID NO: 17]
4.6

Request the reported EC50 (nM), OVCAR 5 cells (cAMP) associated with Ac-LEGREFVRAK(Ac)I[Aib][Aib]EGK([TTDS-TTDS-TTDS-γGlu-γGlu-γGlu-Palmitoyl])STFS[αMeK]RAK(Ac)-NH2 [Relaxin peptide analogue of SEQ ID NO: 24] 36.4
